Reported IC50 for target or system KAT5 (Homo sapiens), by entry.

Quick check: IC50 on KAT5 (Homo sapiens), item Cc1cc(-c2cccc(F)c2)cc(C(=O)NNS(=O)(=O)CC2CCCNC2)c1F (stereo not shown) ?
50 to 100 µM

Another compound: O=C(NNS(=O)(=O)C1CCCCC1)c1cc(-c2ccccc2)ccc1F
10 to 50 µM

And for Cc1cc(-c2ccccc2)cc(C(=O)NNS(=O)(=O)Cc2ccccc2Cl)c1F ?
≤ 10 µM

Input COc1cc(C)c(F)c(C(=O)NNS(=O)(=O)C2CCCCC2)c1
≤ 10 µM

Let us now turn to O=C(NNS(=O)(=O)c1cccc(Cl)c1)c1c(F)ccc(-c2ncc[nH]2)c1F
> 100 µM

# repeat for COCc1cc(Cl)c(F)c(C(=O)NNS(=O)(=O)C2CCOCC2)c1
> 100 µM

Another compound to look at: Cc1cc(-c2ccccc2)cc(C(=O)NNS(=O)(=O)C2CN(CCO)C2)c1F
50 to 100 µM

Also need O=C(NNS(=O)(=O)C1CCCCC1)c1cc(-c2ccc(O)cc2)cc(Cl)c1F , thanks.
≤ 10 µM

Please do the same for Cc1cc(-c2ccccc2)cc(C(=O)NNS(=O)(=O)C2CCN(Cc3ccccc3Cl)C2)c1F (stereo not shown) as well.
≤ 10 µM

Note, next up: Cc1ccccc1C(=O)NNS(=O)(=O)c1ccccc1
> 100 µM

What about CCS(=O)(=O)NNC(=O)c1c(F)ccc(-c2ccccc2)c1C ?
> 100 µM

Thanks! And Cc1cc(-c2ccccc2F)cc(C(=O)NNS(=O)(=O)CC2CCCCC2)c1F ?
≤ 10 µM

How about this compound: O=C(NC1CCC1)c1cc(Cl)c(F)c(C(=O)NNS(=O)(=O)C2CCCCC2)c1
> 100 µM

What do we get for O=C(NNS(=O)(=O)c1ccc2ccccc2c1)c1c(F)ccc(-c2ccccc2)c1F ?
≤ 10 µM

Another compound: COc1cc(Cl)c(F)c(C(=O)NNS(=O)(=O)C2CCCCC2)c1
≤ 10 µM

Item: CN1CCC(c2ccc(F)c(C(=O)NNS(=O)(=O)C3CCCCC3)c2)C1 (stereo not shown)
> 100 µM

Another: Cc1cc(-c2ccccc2)cc(C(=O)NNS(=O)(=O)CC2CCN(C(=O)OC(C)(C)C)CC2)c1F
≤ 10 µM

Could you do the same for CC(=O)N1CCC(S(=O)(=O)NNC(=O)c2cc(-c3ccccc3)cc(C)c2F)CC1 , please?
10 to 50 µM

Proceed to Cc1nn(CC(=O)NC2CCC2)c(C(=O)NNS(=O)(=O)C2CCCCC2)c1F
> 100 µM

Note, next up: COCCN(C)C(=O)c1cc(Cl)c(F)c(C(=O)NNS(=O)(=O)C2CCOCC2)c1
> 100 µM

Repeat with Cc1cc(-c2cccc(OCCN(C)C)c2)cc(C(=O)NNS(=O)(=O)c2ccccc2)c1F
> 100 µM

// same read-out, input: Cc1cccc(C(=O)NNS(=O)(=O)c2ccccc2)c1F
10 to 50 µM

Try this compound next: Cc1cc(-c2ccccc2)cc(C(=O)NNS(=O)(=O)C2CCN(Cc3cccc(Cl)c3)C2)c1F (stereo not shown)
10 to 50 µM

Try this compound next: Cn1ccnc1-c1ccc(F)c(C(=O)NNS(=O)(=O)c2ccccc2)c1F
> 100 µM

Try this compound too: O=C(NNS(=O)(=O)C1CCCCC1)c1cc(-c2cccc(CO)c2)cc(Cl)c1F
≤ 10 µM

And for Cc1cc(C)c(F)c(C(=O)NNS(=O)(=O)C2CCCCC2)c1 ?
10 to 50 µM

Here is the next compound: Cc1cc(-c2ccccc2)cc(C(=O)NNS(=O)(=O)c2ccccn2)c1F
≤ 10 µM

Moving on to the next compound: COCCN1CC(S(=O)(=O)NNC(=O)c2cc(-c3ccccc3)cc(C)c2F)C1
50 to 100 µM

Another compound to look at: Cc1cc(-c2cccc(Cl)c2)cc(C(=O)NNS(=O)(=O)c2ccccc2)c1F
≤ 10 µM

// query: O=C(NNC(=O)c1ccccc1F)c1ccccc1
> 100 µM

Thanks! And Cc1cccc(C(=O)NNS(=O)(=O)Cc2ccccc2)c1F ?
10 to 50 µM

Ok, now CC(C)(C)OC(=O)N1CCCC(CS(=O)(=O)NNC(=O)c2cc(-c3cccc(F)c3)cc(Cl)c2F)C1 (stereo not shown)
≤ 10 µM

Now the compound Cc1cc(C(C)(C)C)cc(C(=O)NNS(=O)(=O)c2ccccc2)c1O
> 100 µM

What would you report for Cc1cc(-c2ccc(F)cc2)cc(C(=O)NNS(=O)(=O)C2CCCCC2)c1F ?
10 to 50 µM

###

What pIC50 was measured for each of the following?
Molecular target: KAT6A (Homo sapiens, UniProt Q92794)
Sequence (Q92794 with tags, fused parts or gaps): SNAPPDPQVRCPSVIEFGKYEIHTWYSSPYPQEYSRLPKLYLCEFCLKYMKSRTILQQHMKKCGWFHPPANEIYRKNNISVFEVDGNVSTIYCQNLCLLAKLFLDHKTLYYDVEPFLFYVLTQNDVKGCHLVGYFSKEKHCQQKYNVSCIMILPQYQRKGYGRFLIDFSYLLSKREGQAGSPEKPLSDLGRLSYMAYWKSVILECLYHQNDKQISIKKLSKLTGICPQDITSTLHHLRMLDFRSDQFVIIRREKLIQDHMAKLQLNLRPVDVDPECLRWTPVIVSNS
pIC50: −log10 of the molar value.

Can you look up the measured pIC50 of Cc1cc(-c2ccccc2)cc(C(=O)NNS(=O)(=O)C2CC2)c1F for me?
4.00 to 4.30

Then what about the molecule Cc1cc(Cl)cc(C(=O)NNS(=O)(=O)CC2CCCCC2)c1F ?
4.30 to 5.00

Now the same for Cc1c(-c2ccccc2)ccc(F)c1C(=O)NNS(=O)(=O)Cc1ccccc1
< 4.00

Try this molecule too: O=C(NNS(=O)(=O)c1ccc2ccccc2c1)c1c(F)ccc(-c2ccccc2)c1F
≥ 5.00

Please answer likewise for CN(C)C(=O)c1cc(Cl)c(F)c(C(=O)NNS(=O)(=O)C2CCOCC2)c1
< 4.00

Try this molecule next: CNC(=O)CCNC(=O)c1cc(Cl)c(F)c(C(=O)NNS(=O)(=O)C2CCOCC2)c1
< 4.00

Thanks! And Cc1cc(-c2cccc(C(=O)OCc3ccccc3)c2)cc(C(=O)NNS(=O)(=O)CC2CCCCC2)c1F ?
4.00 to 4.30

Consider next the molecule Cc1cc(-c2ccccc2)cc(C(=O)NNS(=O)(=O)C2COC2)c1F in the same way.
4.30 to 5.00

What do we get for Cc1cccc(-c2cc(C)c(F)c(C(=O)NNS(=O)(=O)C3CCCCC3)c2)c1 ?
4.30 to 5.00

Repeat with COCCOc1cccc(-c2cc(C)c(F)c(C(=O)NNS(=O)(=O)C3CCCCC3)c2)c1
4.00 to 4.30

Please give the result for CC(=O)N1CCC(S(=O)(=O)NNC(=O)c2cc(-c3ccccc3)cc(C)c2F)CC1 too.
4.30 to 5.00

Next up: Cc1cc(-c2ccccc2)cc(C(=O)NNS(=O)(=O)C2CN(CCO)C2)c1F
4.30 to 5.00

Also need Cc1cccc(-c2cc(Cl)c(F)c(C(=O)NNS(=O)(=O)CC3CCN(C(=O)OC(C)(C)C)C3)c2)c1 (stereo not shown) , thanks.
< 4.00

Do the same for O=C(NNS(=O)(=O)C1CCOCC1)c1cc(C(=O)N2CCOCC2)cc(Cl)c1F please
< 4.00

Then what about the molecule Cc1cc(-c2ccccc2)cc(C(=O)NNS(=O)(=O)CC2CCOCC2)c1F ?
≥ 5.00

Can you check COCCNC(=O)c1cccc(-c2cc(C)c(F)c(C(=O)NNS(=O)(=O)c3ccccc3)c2)c1 next?
≥ 5.00

###

pIC50: −log10 of the molar value.
For reference, pIC50 measured on KAT5 (Homo sapiens):

Looking for the measured pIC50 of O=C(NNS(=O)(=O)C1CCNCC1)c1cc(Cl)cc(Cl)c1F , can you help?
< 4.00

One more compound: O=C(NNS(=O)(=O)c1ccccc1)c1ccc(Cl)cc1
< 4.00

Another: CCC(=O)N1CCCC(CS(=O)(=O)NNC(=O)c2cc(-c3cccc(F)c3)cc(C)c2F)C1 (stereo not shown)
≥ 5.00

// query: COCCOc1cccc(-c2cc(C)c(F)c(C(=O)NNS(=O)(=O)CC3CCCCC3)c2)c1
≥ 5.00

Field entry: Nc1ccc(-c2cc(Cl)c(F)c(C(=O)NNS(=O)(=O)C3CCCCC3)c2)cc1
≥ 5.00

Please give the result for Cc1cc(-c2ccccc2)cc(C(=O)NNS(=O)(=O)C2CCCN(C(=O)C(C)C)C2)c1F (stereo not shown) too.
4.30 to 5.00

Do the same for CCN(C)C(=O)N1CCC(CS(=O)(=O)NNC(=O)c2cc(-c3cccc(C)c3)cc(Cl)c2F)C1 (stereo not shown) please
≥ 5.00

Also, CN1CCN(Cc2cc(Cl)c(F)c(C(=O)NNS(=O)(=O)C3CCOCC3)c2)CC1 please.
< 4.00

Then O=C(NNS(=O)(=O)c1cccc(Cl)c1)c1c(F)ccc(-c2cnc[nH]2)c1F ?
< 4.00

// query: Cc1cc(-c2ccccc2)cc(C(=O)NNS(=O)(=O)c2ccccc2Cl)c1F
≥ 5.00

Note, next up: COc1ccc(Cn2cnc(-c3ccc(F)c(C(=O)NNS(=O)(=O)c4ccccc4)c3F)c2)cc1
4.00 to 4.30

# repeat for O=C(NNS(=O)(=O)C1CCCCC1)c1nc(-c2ccccc2)ccc1F
< 4.00

Moving on to the next compound: CC(=O)N1CCCC(CS(=O)(=O)NNC(=O)c2cc(-c3cccc(C)c3)cc(Cl)c2F)C1 (stereo not shown)
≥ 5.00

// repeat for Cc1cc(-c2ccccc2)cc(C(=O)NNS(=O)(=O)C2CC3CCC(C2)N3C(=O)OC(C)(C)C)c1F (stereo not shown) and report
4.30 to 5.00

Same lookup for O=C(NNS(=O)(=O)c1cccc(Cl)c1)c1c(F)ccc(Cl)c1F , please.
4.00 to 4.30

Okay, and COc1ccc(CN2CCC(S(=O)(=O)NNC(=O)c3cc(-c4ccccc4)cc(C)c3F)C2)cc1 (stereo not shown) ?
4.30 to 5.00
